# system_tested: Focal adhesion kinase 1 (Homo sapiens) (UniProt Q05397)
# Sequence (Q05397 2-1052 limits assumed): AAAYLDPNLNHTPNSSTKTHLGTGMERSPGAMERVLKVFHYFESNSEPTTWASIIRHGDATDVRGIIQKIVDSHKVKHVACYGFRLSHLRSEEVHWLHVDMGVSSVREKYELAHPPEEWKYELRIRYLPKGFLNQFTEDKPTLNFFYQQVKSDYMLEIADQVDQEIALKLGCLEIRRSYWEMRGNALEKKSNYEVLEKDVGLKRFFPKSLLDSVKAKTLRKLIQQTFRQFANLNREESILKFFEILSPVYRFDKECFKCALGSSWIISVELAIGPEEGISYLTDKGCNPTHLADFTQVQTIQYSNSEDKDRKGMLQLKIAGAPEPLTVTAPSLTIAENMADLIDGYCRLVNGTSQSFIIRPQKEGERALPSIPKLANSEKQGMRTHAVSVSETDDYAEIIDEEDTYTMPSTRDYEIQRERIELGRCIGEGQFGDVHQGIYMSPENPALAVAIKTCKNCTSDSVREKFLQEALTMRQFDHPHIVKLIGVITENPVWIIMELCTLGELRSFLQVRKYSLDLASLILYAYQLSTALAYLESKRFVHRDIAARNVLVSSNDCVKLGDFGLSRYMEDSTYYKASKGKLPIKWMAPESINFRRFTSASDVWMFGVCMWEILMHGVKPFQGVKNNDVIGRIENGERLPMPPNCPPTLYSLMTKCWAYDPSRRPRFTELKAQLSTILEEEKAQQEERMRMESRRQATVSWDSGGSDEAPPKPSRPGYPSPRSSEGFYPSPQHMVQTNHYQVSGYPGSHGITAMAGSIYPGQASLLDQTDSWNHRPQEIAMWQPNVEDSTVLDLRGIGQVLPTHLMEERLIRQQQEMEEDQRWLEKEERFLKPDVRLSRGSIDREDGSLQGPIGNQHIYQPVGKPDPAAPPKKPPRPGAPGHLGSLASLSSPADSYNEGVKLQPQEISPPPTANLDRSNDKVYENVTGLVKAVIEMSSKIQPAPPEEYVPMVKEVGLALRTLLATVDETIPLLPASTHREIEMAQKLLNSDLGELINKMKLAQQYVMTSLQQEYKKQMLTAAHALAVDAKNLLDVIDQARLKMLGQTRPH
# protocol_summary: Inhibition of FAK at 1 uM
endpoint_name: inhibition (%)

CC(=O)N1CCN(c2cc(-c3cnc4c(c3)N(Cc3cc(Cl)ccc3C(F)(F)F)CCN4)ccn2)CC1; 100
CN1CCN(c2ccc(-c3cnc4c(c3)N(Cc3c(F)ccc(F)c3Cl)CCN4)cn2)CC1; 83
CN1CCN(c2ccc(-c3cnc4c(c3)N(Cc3cc(Cl)ccc3Cl)CCN4)cn2)CC1; 94
O=C(c1ccc(-c2cnc3c(c2)N(Cc2cc(Cl)ccc2C(F)(F)F)CCN3)cc1)N1CCCCC1; 84.4

====

# system_tested: Mitogen-activated protein kinase kinase kinase 2 (Homo sapiens)
# protocol_summary: Inhibition of MAP3K2 at 1 uM
endpoint_name: inhibition

Examples with answers:
CN1CCN(c2ccc(-c3cnc4c(c3)N(Cc3cc(F)ccc3F)CCN4)cn2)CC1; < 50%
CN1CCN(c2ccc(-c3cnc4c(c3)N(Cc3cc(Cl)ccc3Cl)CCN4)cn2)CC1; < 50%

Param item = `CN1CCN(c2ccc(-c3cnc4c(c3)N(Cc3c(F)ccc(F)c3Cl)CCN4)cn2)CC1` ; retrieve measured inhibition.
< 50%
